- target.desc: T1, Recombinant purified human PD-1 protein, residues Leu25-Thr168, with a C-terminal 6-His tag (Homo sapiens, UniProt Q15116)
- T1 construct: programmed cell death protein 1 (PD-1), human, residues Leu25-Thr168; also called programmed cell death protein 1; PD-1-His monomer; source: bought: R&D Systems (catalog# 8986-PD, lot# DDJM0417041)
- procedure.text: SPR; Biacore 8K, CM5 chip (3D-hydrogel); mAb captured on amine-coupled goat anti-human IgG Fc, PD-1-His monomer as analyte (100 nM top, 3-fold dilutions), 1200 s dissociation; 25 C, HBS-EP+ pH 7.4; 1:1 Langmuir fit, apparent constants
- condition.set: both partners purified

binder	unit.symbol	koff
mAb04 (antibody, V domains shown, IgG4; also called analog of retifanlimab; retifan; source: HEK293 suspension cells, cotransfected, purified (Protein A)) VH: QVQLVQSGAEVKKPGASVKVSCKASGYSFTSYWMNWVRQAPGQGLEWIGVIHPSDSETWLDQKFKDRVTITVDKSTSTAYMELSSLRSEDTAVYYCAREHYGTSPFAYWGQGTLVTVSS VL: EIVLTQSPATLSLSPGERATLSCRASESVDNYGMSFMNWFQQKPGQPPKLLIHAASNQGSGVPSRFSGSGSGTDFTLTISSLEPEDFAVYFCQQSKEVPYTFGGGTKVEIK	s⁻¹	0.000235
